Values compiled from patent US20170050957A1.

tested on: Key Broadleaf Weed and Crop Species; assay: Post-emergent Test II herbicidal activity (Table 15); assay type: in vivo; settings: Abutilon theophrasti, post-emergence, 336 h, velvetleaf (Abutilon theophrasti), 70 g ai/ha, 14 d, read-out: Visual Growth Reduction (%) 14 Days After Application, ABUTH
Quantity Name: pest or weed control at 70 g/ha

> print(dat)
                           smiles.structure                        tested.target  data.value
1  COC(=O)c1nc(-c2ccc3[nH]ncc3c2)c(F)c(N)c1Cl  Key Broadleaf Weed and Crop Species    0 to 29%
2   COc1c(N)nc(-c2ccc(Cl)c3occc23)nc1C(=O)O  Key Broadleaf Weed and Crop Species   30 to 44%
3      COC(=O)c1nc(-c2ccc3ccsc3c2)nc(N)c1OC  Key Broadleaf Weed and Crop Species    0 to 29%
4  COC(=O)c1nc(-c2ccc(Cl)c3[nH]ccc23)cc(N)c1Cl  Key Broadleaf Weed and Crop Species   75 to 84%
5  COC(=O)c1nc(-c2ccc(Cl)c3[nH]ccc23)c(F)c(N)c1Cl  Key Broadleaf Weed and Crop Species    0 to 29%
6  COC(=O)c1nc(-c2cccc3c2cnn3C)c(F)c(N)c1Cl  Key Broadleaf Weed and Crop Species    0 to 29%
7  COC(=O)c1nc(-c2ccc(Cl)c3cc[nH]c23)cc(N)c1Cl  Key Broadleaf Weed and Crop Species   85 to 94%
8    Cc1c(-c2ccc3ccsc3c2)nc(C(=O)O)c(Cl)c1N  Key Broadleaf Weed and Crop Species    0 to 29%
9  COC(=O)c1nc(-c2cccc3cn[nH]c23)c(F)c(N)c1Cl  Key Broadleaf Weed and Crop Species    0 to 29%

* * *

tested on: Key Broadleaf Weed and Crop Species; assay: Post-emergent Test II herbicidal activity (Table 15); format: in vivo; conditions: Helianthus annuus, post-emergence, 336 h, sunflower (Helianthus annuus), 35 g ai/ha, 14 d, read-out: Visual Growth Reduction (%) 14 Days After Application, HELAN
Here, each record is paired with measured pest or weed control at 35 g/ha data.
Quantity Name: pest or weed control at 35 g/ha

> print(dat)
                           smiles.structure                        tested.target  data.value
1       Nc1cc(-c2ccc3ccsc3c2)nc(C(=O)O)c1Cl  Key Broadleaf Weed and Crop Species    0 to 29%
2   COc1c(N)nc(-c2ccc3cc[nH]c3c2F)nc1C(=O)O  Key Broadleaf Weed and Crop Species   30 to 44%
3   COC(=O)c1nc(-c2ccc3ccsc3c2)c(F)c(N)c1Cl  Key Broadleaf Weed and Crop Species   85 to 94%
4  Cn1ccc2cc(-c3nc(C(=O)O)c(Cl)c(N)c3F)ccc21  Key Broadleaf Weed and Crop Species    0 to 29%
5  COC(=O)c1nc(-c2ccc3cc[nH]c3c2)c(Cl)c(N)c1Cl  Key Broadleaf Weed and Crop Species  95 to 100%
6  COC(=O)c1nc(-c2ccc3cc[nH]c3c2F)c(F)c(N)c1OC  Key Broadleaf Weed and Crop Species  95 to 100%
7   Nc1c(Cl)c(C(=O)O)nc(-c2ccc3sccc3c2)c1Cl  Key Broadleaf Weed and Crop Species   60 to 74%
8     COC(=O)c1nc(-c2cc3occc3cc2F)nc(N)c1OC  Key Broadleaf Weed and Crop Species   60 to 74%
9    Cc1c(-c2ccc3sccc3c2)nc(C(=O)O)c(Cl)c1N  Key Broadleaf Weed and Crop Species   85 to 94%
